Reported log10 of EC50 values for the following compounds.
Target: Human GPR120 short form (Homo sapiens)
Construct: expressed in transfected cells
Sequence (Q5NUL3 whole entry): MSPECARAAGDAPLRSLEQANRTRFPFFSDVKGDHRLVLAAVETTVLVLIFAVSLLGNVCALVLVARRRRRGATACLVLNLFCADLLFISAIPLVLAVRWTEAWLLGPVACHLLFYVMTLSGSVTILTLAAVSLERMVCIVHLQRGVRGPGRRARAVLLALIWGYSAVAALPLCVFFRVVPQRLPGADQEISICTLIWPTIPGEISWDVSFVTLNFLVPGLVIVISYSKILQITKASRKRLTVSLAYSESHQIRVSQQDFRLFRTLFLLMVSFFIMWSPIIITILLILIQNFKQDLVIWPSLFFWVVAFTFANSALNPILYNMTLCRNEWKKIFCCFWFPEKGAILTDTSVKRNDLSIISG
Assay: Human GPR120 calcium flux assay, Procedure Calcium B (4200 cells/well)
Type: cell-based
Recorded EC50 (log10, nM)

Illustrative cases are given below, each with its answer.
compound: O=C(O)CCc1ccc(OCC2=C(C3CCC3)CCC2)cc1Cl [Compound 400]
recorded.result: 3.00

compound: Cc1cc(CCC(=O)O)ccc1OCC1=C(c2ccc(Cl)cc2)CCCC1 [Compound 483]
recorded.result: 1.72

compound: O=C(O)CCc1ccc(OCC2=C(Cc3ccccc3)CCC2)cc1C(F)(F)F [Compound 319]
recorded.result: 2.79

-- ask Specify measured log10 of EC50 for CC1CCC(COc2ccc(CCC(=O)O)cc2)=C1c1ccc(Cl)cc1 (stereo not shown) [Compound 328] .
-- reply 2.49

-- ask Specify measured log10 of EC50 for O=C(O)CCc1ccc(OCC2=C(C3CCCC3)CC(F)(F)C2)cc1Cl [Compound 409] .
-- reply 1.93

-- ask Specify measured log10 of EC50 for O=C(O)CCc1ccc(OCC2=C(Cc3ccccc3)CC(F)(F)C2)cc1Cl [Compound 364] .
-- reply 2.95
